These measurements were taken from the supplement of paper PMC10567573.

B1: NCK2 (parent)
chain: YVERKNSLKKGSLVKNLKDTLGLG

Variants of: B1
EXPERIMENT_SUMMARY: protein stability index of a GFP-peptide fusion (GPS, HEK-293T) (PSI 1-6); higher = more stable;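 further: lentivirally expressed fusions sorted by FACS into six bins by GFP to DsRed ratio, PSI derived from sequencing read proportions per bin multiplied by bin number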
ASSAY_SETUP: c terminus: a fixed tail appended
MEASURED_METRIC: protein stability index
Returns: the value as a bare number; no unit string appended.

{"VARIANT_NAME": "G24A", "protein stability index": 2.36}

Please indicate protein stability index recorded for `K18Y`
2.41

Please indicate protein stability index recorded for `K18C`
2.94

Please indicate protein stability index recorded for `K5Y`
2.84

Please indicate protein stability index recorded for `K9M`
1.92

Please indicate protein stability index recorded for `K9V`
2.48

Please indicate protein stability index recorded for `N6Q`
2.53
